tested on: Nkx2.5 (C2C12 cells); assay: Nkx2.5 luciferase reporter assay in C2C12 cells; assay type: cell-based; conditions: Mus musculus, 192 h; C2C12 cells, 1 μM for 8 days, luciferase signal vs control (untreated cells); read-out: Nkx2.5 activity
compounds and their reported fold induction at 1 µM

- sampleSmiles: "COc1ccc(Nc2cc(NCCO)ncn2)cc1"
  fold induction at 1 µM: "< 1.3"
- sampleSmiles: "COc1ccc(Nc2ccnc(NCCO)c2)cc1"
  fold induction at 1 µM: "< 1.3"
- sampleSmiles: "OCCNc1cc(Nc2ccc(Oc3ccccc3)cc2)ncn1"
  fold induction at 1 µM: "1.3 to 2"
- sampleSmiles: "OCCNc1cc(Nc2ccc(Nc3ccccc3)cc2)ncn1"
  fold induction at 1 µM: "< 1.3"
- sampleSmiles: "OCCCNc1cc(Nc2ccc(N3CCOCC3)cc2)ncn1"
  fold induction at 1 µM: "1.3 to 2"
- sampleSmiles: "COc1ccc(Nc2cc(NCCCO)ncn2)cc1"
  fold induction at 1 µM: "1.3 to 2"

###

system: Nkx2.5 (C2C12 cells); experiment: Nkx2.5 luciferase reporter assay in C2C12 cells; type: cell-based; details: Mus musculus, 192 h; C2C12 cells, 1 μM for 8 days, luciferase signal vs control (untreated cells); read-out: Nkx2.5 activity

- sampleSmiles: "COc1ccc(Nc2cccc(NCCO)n2)cc1"
  systemName: "Nkx2.5 (C2C12 cells)"
  fold induction at 1 µM: "1.3 to 2"
- sampleSmiles: "CCCNc1cc(Nc2ccc(OC)cc2)ncn1"
  systemName: "Nkx2.5 (C2C12 cells)"
  fold induction at 1 µM: "1.3 to 2"
- sampleSmiles: "CNc1cc(Nc2ccc(OC)cc2)ncn1"
  systemName: "Nkx2.5 (C2C12 cells)"
  fold induction at 1 µM: "1.3 to 2"
- sampleSmiles: "OCCNc1cccc(Nc2ccc(Oc3ccccc3)cc2)n1"
  systemName: "Nkx2.5 (C2C12 cells)"
  fold induction at 1 µM: "1.3 to 2"
- sampleSmiles: "OCCNc1cc(Nc2ccc(N3CCOCC3)cc2)ncn1"
  systemName: "Nkx2.5 (C2C12 cells)"
  fold induction at 1 µM: "< 1.3"
- sampleSmiles: "COc1ccc(Nc2cccc(NCCCO)n2)cc1"
  systemName: "Nkx2.5 (C2C12 cells)"
  fold induction at 1 µM: "1.3 to 2"
- sampleSmiles: "COc1cccc(Nc2cc(NCCO)ncn2)c1"
  systemName: "Nkx2.5 (C2C12 cells)"
  fold induction at 1 µM: "< 1.3"
- sampleSmiles: "OCCCNc1cccc(Nc2ccc(Oc3ccccc3)cc2)n1"
  systemName: "Nkx2.5 (C2C12 cells)"
  fold induction at 1 µM: "< 1.3"

###

- sampleSmiles: "OCCNc1cc(Nc2ccc(Cl)cc2)ncn1"
  melting point: "183 °C"
- sampleSmiles: "OCCNc1cc(Nc2ccc(Oc3ccccc3)cc2)ncn1"
  melting point: "154 to 156 °C"
- sampleSmiles: "OCCNc1cc(Nc2ccc(N3CCOCC3)cc2)ncn1"
  melting point: "204 to 207 °C"
- sampleSmiles: "OCCNc1cc(Nc2ccc(Nc3ccccc3)cc2)ncn1"
  melting point: "154 to 155 °C"
- sampleSmiles: "CCNc1cc(Nc2ccc(OC)cc2)ncn1"
  melting point: "190 to 193 °C"
- sampleSmiles: "OCCCNc1cc(Nc2ccc(N3CCOCC3)cc2)ncn1"
  melting point: "198 to 199 °C"
- sampleSmiles: "CCCNc1cc(Nc2ccc(OC)cc2)ncn1"
  melting point: "194 to 196 °C"
- sampleSmiles: "COc1ccc(Nc2ccnc(NCCO)c2)cc1"
  melting point: "164 to 165 °C"
- sampleSmiles: "c1nc(Nc2ccc(N3CCOCC3)cc2)cc(NC2CCCCC2)n1"
  melting point: "239 to 240 °C"
- sampleSmiles: "COc1ccc(Nc2cc(NC3CCCCC3)ncn2)cc1"
  melting point: "218 to 219 °C"
- sampleSmiles: "CNc1cc(Nc2ccc(OC)cc2)ncn1"
  melting point: "174 to 182 °C"
- sampleSmiles: "COc1ccc(Nc2cc(NCCCO)ncn2)cc1"
  melting point: "151 to 152 °C"

Cited source for all entries: patent US8986994B2
